Where do these numbers come from? They come from paper PMC9516381.

- testedTarget: h2E2 anti-cocaine mAb
- test: Isothermal titration calorimetry
- Type: binding
- reportedConditions: ITC, PBS, 20°C; reciprocal of fitted K; mean ± SD of 4 experiments
Would you kindly list Kd for each of these compounds?
I'd appreciate it if you wrote the number followed by its unit.

Examples with answers:
INSERT INTO measurements (compound, assayreadout, reportedresult) VALUES
  ('COC(=O)[C@H]1[C@@H](OC(=O)c2ccccc2)C[C@@H]2CC[C@H]1N2C [Cocaine, cocaine]', 'Kd', '8.13 nM'),
  ('COC(=O)[C@H]1[C@@H](OC(=O)c2ccccc2)C[C@@H]2CC[C@H]1N2 [Norcocaine, norcocaine]', 'Kd', '1420 nM');

Please state, for each entry, its recorded Kd.
1. COC(=O)[C@@H]1[C@H]2CC[C@@H](C[C@@H]1O)N2C [Ecgonine Methyl Ester, ecgonine methyl ester]
2. CCOC(=O)[C@@H]1C2CCC(C[C@@H]1OC(=O)c1ccccc1)N2C (some centres unmarked) [Cocaethylene, cocaethylene]
3. CN1[C@H]2CC[C@@H]1[C@@H](C(=O)O)[C@@H](OC(=O)c1ccccc1)C2 [Benzoylecgonine, benzoylecgonine]

Marked response:
1. 18700 nM
2. 5.29 nM
3. 54.4 nM
